Origin of measurements: ChEMBL document CHEMBL1136685

- TARGET SYSTEM: Melanocortin receptor 4 (Homo sapiens)
- Sequence (P32245 whole entry): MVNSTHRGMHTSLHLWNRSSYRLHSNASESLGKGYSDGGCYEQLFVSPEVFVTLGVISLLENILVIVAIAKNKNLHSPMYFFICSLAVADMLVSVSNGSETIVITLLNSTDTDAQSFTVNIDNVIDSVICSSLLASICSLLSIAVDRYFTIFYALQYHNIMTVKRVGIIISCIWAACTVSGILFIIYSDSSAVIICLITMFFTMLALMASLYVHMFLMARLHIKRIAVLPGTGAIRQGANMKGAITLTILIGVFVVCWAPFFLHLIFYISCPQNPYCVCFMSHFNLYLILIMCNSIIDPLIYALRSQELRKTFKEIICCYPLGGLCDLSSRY
- PROTOCOL SUMMARY: Agonist activity at human melanocortin receptor (hMC4R).
- Assay type: functional
Give measured pEC50 for each item. Keep answers brief.
Interpret pEC50 as the negative base-10 log of the concentration measured in mol/L.

Task item: What does the record list as pEC50 for "CCCCC(=O)N[C@H]1CC(=O)NCCCC[C@@H](C(N)=O)NC(=O)[C@H](Cc2c[nH]c3ccccc23)NC(=O)[C@H](CCCN=C(N)N)NC(=O)[C@@H](Cc2ccccc2)NC(=O)[C@@]2(CCc3c(CC)cccc3C2)NC1=O" ?
Reply: 8.10

Task item: What does the record list as pEC50 for CCCCC(=O)N[C@H]1CC(=O)NCCCC[C@@H](C(N)=O)NC(=O)[C@H](Cc2c[nH]c3ccccc23)NC(=O)[C@H](CCCNC(=N)N)NC(=O)[C@@H](Cc2ccccc2)NC(=O)C2(CCc3ccc(Br)cc3C2)NC1=O (mixture of isomers) ?
Reply: 8.00

Task item: What does the record list as pEC50 for "CCCCC(=O)N[C@H]1CC(=O)NCCCC[C@@H](C(N)=O)NC(=O)[C@H](Cc2c[nH]c3ccccc23)NC(=O)[C@H](CCCN=C(N)N)NC(=O)[C@@H](Cc2ccccc2)NC(=O)[C@@H]2Cc3ccccc3CN2C1=O" ?
Reply: 8.52

Task item: What does the record list as pEC50 for CCCCC(=O)N[C@H]1CC(=O)NCCCC[C@@H](C(N)=O)NC(=O)[C@H](Cc2c[nH]c3ccccc23)NC(=O)[C@H](CCCN=C(N)N)NC(=O)[C@@H](Cc2ccccc2)NC(=O)[C@@]2(CCc3ccccc3C2)NC1=O (mixture of isomers) ?
Reply: 7.19

Task item: What does the record list as pEC50 for CCCCC(=O)N[C@H]1CC(=O)NCCCC[C@@H](C(N)=O)NC(=O)[C@H](Cc2c[nH]c3ccccc23)NC(=O)[C@H](CCCN=C(N)N)NC(=O)[C@@H](Cc2ccccc2)NC(=O)[C@@H]2c3ccccc3CN2C1=O (single isomer, unassigned; form 1) ?
Reply: 6.93

Task item: What does the record list as pEC50 for CCCCC(=O)N[C@H]1CC(=O)NCCCC[C@@H](C(N)=O)NC(=O)[C@H](Cc2c[nH]c3ccccc23)NC(=O)[C@H](CCCN=C(N)N)NC(=O)[C@@H](Cc2ccccc2)NC(=O)C2(CCc3cccc(Br)c3C2)NC1=O (mixture of isomers) ?
Reply: 6.75

Task item: What does the record list as pEC50 for CCCCC(=O)N[C@H]1CC(=O)NCCCC[C@@H](C(N)=O)NC(=O)[C@H](Cc2c[nH]c3ccccc23)NC(=O)[C@H](CCCNC(=N)N)NC(=O)[C@@H](Cc2ccccc2)NC(=O)C2(CCc3c(cccc3C(C)C)C2)NC1=O (mixture of isomers) ?
Reply: 8.15

Task item: What does the record list as pEC50 for CCCCC(=O)N[C@H]1CC(=O)NCCCC[C@@H](C(N)=O)NC(=O)[C@H](Cc2c[nH]c3ccccc23)NC(=O)[C@H](CCCN=C(N)N)NC(=O)[C@@H](Cc2ccccc2)NC(=O)[C@@H]2c3ccccc3CN2C1=O (single isomer, unassigned; form 2) ?
Reply: 8.70

Task item: What does the record list as pEC50 for "CCCC[C@H](NC(C)=O)C(=O)N[C@H]1CC(=O)NCCCC[C@@H](C(N)=O)NC(=O)[C@H](Cc2c[nH]c3ccccc23)NC(=O)[C@H](CCCN=C(N)N)NC(=O)[C@@H](Cc2ccccc2)NC(=O)[C@H](CCC(N)=O)NC1=O" ?
Reply: 9.52

Task item: What does the record list as pEC50 for CCCCC(=O)N[C@H]1CC(=O)NCCCC[C@@H](C(N)=O)NC(=O)[C@H](Cc2c[nH]c3ccccc23)NC(=O)[C@H](CCCN=C(N)N)NC(=O)[C@@H](Cc2ccccc2)NC(=O)C2(CCc3c(cccc3OC(C)C)C2)NC1=O (mixture of isomers) ?
Reply: 8.15

Task item: What does the record list as pEC50 for "CCCCC(=O)N[C@H]1CC(=O)NCCCC[C@@H](C(N)=O)NC(=O)[C@H](Cc2c[nH]c3ccccc23)NC(=O)[C@H](CCCNC(=N)N)NC(=O)[C@@H](Cc2ccccc2)NC(=O)[C@H](Cc2ccc(-c3ccccc3)cc2)NC1=O" ?
Reply: 8.22

Task item: What does the record list as pEC50 for CCCCC(=O)N[C@H]1CC(=O)NCCCC[C@@H](C(N)=O)NC(=O)[C@H](Cc2c[nH]c3ccccc23)NC(=O)[C@H](CCCN=C(N)N)NC(=O)[C@@H](Cc2ccccc2)NC(=O)C2(CCc3c(Cl)cccc3C2)NC1=O (mixture of isomers) ?
Reply: 8.05

Task item: What does the record list as pEC50 for "CCCCC(=O)N[C@H]1CC(=O)NCCCC[C@@H](C(N)=O)NC(=O)[C@H](Cc2c[nH]c3ccccc23)NC(=O)[C@H](CCCNC(=N)N)NC(=O)[C@@H](Cc2ccccc2)NC(=O)C2(Cc3ccccc3C2)NC1=O" ?
Reply: 7.19

Task item: What does the record list as pEC50 for CCCCC(=O)N[C@H]1CC(=O)NCCCC[C@@H](C(N)=O)NC(=O)[C@H](Cc2c[nH]c3ccccc23)NC(=O)[C@H](CCCN=C(N)N)NC(=O)[C@@H](Cc2ccccc2)NC(=O)C2(CCc3cc(Br)ccc3C2)NC1=O (mixture of isomers) ?
Reply: 7.43

Task item: What does the record list as pEC50 for CCCCC(=O)N[C@H]1CC(=O)NCCCC[C@@H](C(N)=O)NC(=O)[C@H](Cc2c[nH]c3ccccc23)NC(=O)[C@H](CCCN=C(N)N)NC(=O)[C@@H](Cc2ccccc2)NC(=O)C2(CCc3c(cccc3N(C)C)C2)NC1=O (mixture of isomers) ?
Reply: 7.35

Task item: What does the record list as pEC50 for CCCCC(=O)N[C@H]1CC(=O)NCCCC[C@@H](C(N)=O)NC(=O)[C@H](Cc2c[nH]c3ccccc23)NC(=O)[C@H](CCCN=C(N)N)NC(=O)[C@@H](Cc2ccccc2)NC(=O)[C@@]2(CCc3c(cccc3OC)C2)NC1=O (mixture of isomers) ?
Reply: 8.30
